test system: HCT 8 (Colon); experiment: MTT cell proliferation assay, HCT 8; format: cell-based, human; details: MTT, 48 h treatment, medium with 10% FBS; read-out: IC50 μM HCT 8 (Colon)
ENDPOINT: IC50
Show the value, then the unit it is measured in.

Ask: Entry O=C1c2c(O)ccc(O)c2C(=O)c2c(NCCNCCO)ccc(NCCNCCO)c21 [Mitoxanthrone, reference compound] has what IC50?
Reply: 1.25 µM

* * *

tested on: HCT 8 (Colon); experiment: MTT cell proliferation assay, HCT 8; format: cell-based, human; settings: Homo sapiens, HCT-8, 48 h, read-out: IC50 μM HCT 8 (Colon)
ENDPOINT: IC50 (µM)
Only the number, expressed in µM, is required.

Ask: Entry CC1(C)OC(=O)C(=CC#Cc2cccc3ccccc23)C(=O)O1 [Example 28] has what IC50?
Reply: 8.82

* * *

Provide the recorded IC50 for the entries that follow.
system: KAIMRC1 (Breast); assay: MTT cell proliferation assay, KAIMRC1; type: cell-based, human; conditions: Homo sapiens; MTT, 48 h treatment, medium with 10% FBS; read-out: IC50 μM KAIMRC1 (Breast)
Show the value, then the unit it is measured in.

Ask: Entry CC1(C)OC(=O)C(=CC=Cc2cncc3ccccc23)C(=O)O1 [Example 10] has what IC50?
Reply: 4.45 µM

Ask: Entry CC1(C)OC(=O)C(=CC=Cc2cccc3ccccc23)C(=O)O1 [Example 18] has what IC50?
Reply: 6.54 µM

Ask: Entry O=C1OC2(CCC2)OC(=O)C1=CC=Cc1cccc2ccccc12 [Example 20] has what IC50?
Reply: 11.9 µM
